pKi: −log10 of the molar value. Where a SMILES comes first, the peptide text is derived from it.
A set of compounds tested on Delta-type opioid receptor (Homo sapiens), with measured pKi:

compound	pKi
C=CCN1CCC23c4c5ccc(O)c4OC2c2c(c4ccccc4n2C)C[C@@]3(OC)C1C5 (stereo partly specified)	9.38
C=CCN(CC=C)[C@@H](Cc1ccc(O)cc1)C(=O)NC(C)(C)C(=O)NC(C)(C)C(=O)N[C@@H](Cc1ccccc1)C(=O)N[C@@H](CC(C)C)C(=O)O [NSC_107691] (HELM PEPTIDE1{[C=CCN(CC=C)[C@@H](Cc1ccc(O)cc1)C(=O)[*:2]].[Aib].[Aib].F.L}$$$$V2.0)	6.36
CCO[C@@]12Cc3c([nH]c4ccccc34)C3Oc4c(O)ccc5c4C31CCN(CC1CC1)C2C5 (stereo partly specified)	9.96
CCO[C@@]12Cc3c([nH]c4ccccc34)[C@]3(C)Oc4c(O)ccc5c4C31CCN(CC1CC1)C2C5 (stereo partly specified)	9.40
Cc1cc(O)cc(C)c1C[C@H](N)C(=O)N1Cc2ccccc2C[C@H]1C(=O)O (HELM PEPTIDE1{[Cc1cc(O)cc(C)c1C[C@H](N)C(=O)[*:2]].[Tic]}$$$$V2.0)	7.88
Cc1cc(O)cc(C)c1C[C@H](N)C(=O)N1Cc2ccccc2C[C@H]1C(N)=O [H-Dmt-Tic-NH2] (HELM PEPTIDE1{[Cc1cc(O)cc(C)c1C[C@H](N)C(=O)[*:2]].[Tic].[am]}$$$$V2.0)	8.03
C=CCN1CCC23c4c5ccc(O)c4OC2c2[nH]c4ccccc4c2C[C@@]3(OCC)C1C5 (stereo partly specified)	8.68
N[C@@H](Cc1ccc(O)cc1)C(=O)N1Cc2ccccc2C[C@H]1C(=O)N[C@@H](Cc1ccccc1)C(=O)N[C@@H](Cc1ccccc1)C(=O)O [TIPP] (HELM PEPTIDE1{Y.[Tic].F.F}$$$$V2.0)	8.54
CCO[C@@]12Cc3c(oc4ccccc34)C3Oc4c(O)ccc5c4C31CCN(CC1CC1)C2C5 (stereo partly specified) [HS510A]	9.92
Cc1cc(O)cc(C)c1C[C@@H](C(=O)N1Cc2ccccc2C[C@H]1C(N)=O)N(C)C	8.60
COc1c(O)cc2c3c1O[C@@]1(C)c4oc5ccccc5c4C[C@@]4(O)C(C2)N(CC2CC2)CCC314 (stereo partly specified)	9.66
